- Target System: UniProtKB Q9NWZ3
- Experimental Details: IRAK4 Degradation HiBiT Assay
- Test Context: read-out: Cellular IRAK4 HiBiT: DC50; Table 5; multiple runs; HiBiT-tagged Jurkat cells, 4 hrs
- Sequence (Q9NWZ3 whole entry): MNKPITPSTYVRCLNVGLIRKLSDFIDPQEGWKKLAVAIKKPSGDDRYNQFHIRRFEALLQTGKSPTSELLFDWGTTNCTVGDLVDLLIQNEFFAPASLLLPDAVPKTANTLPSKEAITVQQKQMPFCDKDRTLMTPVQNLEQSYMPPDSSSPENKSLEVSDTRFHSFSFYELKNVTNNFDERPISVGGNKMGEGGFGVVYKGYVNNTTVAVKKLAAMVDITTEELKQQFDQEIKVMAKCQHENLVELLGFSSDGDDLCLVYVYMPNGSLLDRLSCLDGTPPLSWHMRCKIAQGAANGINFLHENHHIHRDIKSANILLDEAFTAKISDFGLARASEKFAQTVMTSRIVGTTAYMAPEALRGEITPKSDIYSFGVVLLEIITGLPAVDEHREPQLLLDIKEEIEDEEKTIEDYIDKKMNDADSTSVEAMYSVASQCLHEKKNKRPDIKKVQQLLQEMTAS
Binarize DC50 at 50 nM; below is MET, at or above is NOT MET.

INPUT: Does CNc1cc(-c2ccc3cc(C#N)cnn23)ncc1-c1nnc([C@H]2CC[C@H](NC[C@@H]3CCN(c4ccc5c(c4)C(=O)N(C4CCC(=O)NC4=O)C5=O)C3)CC2)s1 (some centres unmarked) [Example 153] have DC50 strictly under 50 nM?
OUTPUT: NOT MET

INPUT: Does CNc1cc(-c2ccc3cc(C#N)cnn23)ncc1-c1nnc(C2CCC(NC(=O)Cn3ccc(C(=O)N[C@H](C(=O)N4C[C@H](O)C[C@H]4C(=O)N[C@@H](C)c4ccc(-c5scnc5C)cc4)C(C)(C)C)n3)CC2)s1 (some centres unmarked) [Example 125] have DC50 strictly under 50 nM?
OUTPUT: NOT MET

INPUT: Does CC(C)Nc1cc(-c2ccc3cc(C#N)cnn23)ncc1-c1nnc(N2CCN(C(=O)CCCCCNc3cccc4c3C(=O)N(C3CCC(=O)NC3=O)C4=O)CC2)s1 (centres unmarked) [Example 9] have DC50 strictly under 50 nM?
OUTPUT: NOT MET

INPUT: Does CNc1cc(-c2ccc3cc(C#N)cnn23)ncc1-c1nnc([C@H]2CC[C@H](NC(=O)CCCC(=O)N[C@H](C(=O)N3C[C@H](O)C[C@H]3C(=O)NCc3ccc(-c4scnc4C)cc3)C(C)(C)C)CC2)s1 [Example 59] have DC50 strictly under 50 nM?
OUTPUT: NOT MET

INPUT: Does N#Cc1cnn2c(-c3cc(NC4CCOCC4)c(-c4nnc(C56CCC(NC(=O)CCOCCOCCNc7cccc8c7C(=O)N(C7CCC(=O)NC7=O)C8=O)(CC5)CC6)s4)cn3)ccc2c1 (centres unmarked) [Example 1] have DC50 strictly under 50 nM?
OUTPUT: MET

---

- Target System: IRAK4 (Homo sapiens (Human), UniProt Q9NWZ3)
- Experimental Details: IRAK4 Biochemical HTRF Kinase Assay
- Test Context: Table 5; multiple runs; read-out: IRAK4 HTRF biochemical: IC50
- Sequence (Q9NWZ3 whole entry, species assumed): as the sequence (Q9NWZ3 whole entry) above
Reported Metric: IC50 (nM)
Supply the numeric figure in nM, leaving out any unit text.

INPUT: Name the recorded IC50 for CNc1cc(-c2ccc3cc(C#N)cnn23)ncc1-c1nnc(N2CCC(C(=O)N3CCN(Cc4ccc5c(c4)C(=O)N(C4CCC(=O)NC4=O)C5=O)CC3)CC2)s1 (stereo not drawn) .
OUTPUT: 1

INPUT: Name the recorded IC50 for CNc1cc(-c2ccc3cc(C#N)cnn23)ncc1-c1nnc([C@H]2CC[C@@H](NC(=O)CCOCCNc3ccc4c(c3)C(=O)N(C3CCC(=O)NC3=O)C4=O)CC2)s1 (stereo partly drawn) .
OUTPUT: 2.2

INPUT: Name the recorded IC50 for CC(C)Nc1cc(-c2ccc3cc(C#N)cnn23)ncc1-c1nnc(N2CCN(CC3CCN(c4cccc5c4n(C)c(=O)n5C4CCC(=O)NC4=O)CC3)CC2)s1 (stereo not drawn) .
OUTPUT: 2.5

---

- Target System: IRAK4 (Homo sapiens (Human))
- Experimental Details: IRAK4 Biochemical HTRF Kinase Assay
- Test Context: Table 5; multiple runs; read-out: IRAK4 HTRF biochemical: IC50
Exercise: for every item that follows, state its recorded IC50.
Supply the numeric figure in nM, leaving out any unit text.

INPUT: Name the recorded IC50 for CNc1cc(-c2ccc3cc(C#N)cnn23)ncc1-c1nnc(N2CCCC3(CN(Cc4ccc5c(c4)C(=O)N(C4CCC(=O)NC4=O)C5=O)C3)C2)s1 (centres unmarked) [Example 122] .
OUTPUT: 1.1

INPUT: Name the recorded IC50 for CNc1cc(-c2ccc3cc(C#N)cnn23)ncc1-c1nnc(N2CCC(NC[C@@H]3CCN(c4ccc5c(c4)n(C)c(=O)n5C4CCC(=O)NC4=O)C3)CC2)s1 (some centres unmarked) [Example 93] .
OUTPUT: 0.9

INPUT: Name the recorded IC50 for CC(C)Nc1cc(-c2ccc3cc(C#N)cnn23)ncc1-c1nnc(N2CCN(CC3CCN(c4ccc(C(=O)N(C)C5CCC(=O)NC5=O)cc4)CC3)CC2)s1 (centres unmarked) [Example 34] .
OUTPUT: 2

INPUT: Name the recorded IC50 for CNc1cc(-c2ccc3cc(C#N)cnn23)ncc1-c1nnc([C@H]2CC[C@@H](NC(=O)C3CCN(c4ccc5c(c4)C(=O)N(C4CCC(=O)NC4=O)C5=O)CC3)CC2)s1 (some centres unmarked) [Example 133] .
OUTPUT: 0.9

INPUT: Name the recorded IC50 for Cc1ncsc1-c1ccc([C@H](C)NC(=O)[C@@H]2C[C@@H](O)CN2C(=O)[C@@H](NC(=O)CCOCCOCCOCCOCCOCCC(=O)N2CCN(c3nnc(-c4cnc(-c5ccc6cc(C#N)cnn56)cc4NC(C)C)s3)CC2)C(C)(C)C)cc1 [Example 41] .
OUTPUT: 1.3

Where do these numbers come from? They come from patent US12528814B2.
